These data points were gathered from paper PMC5442318.

# System: P. falciparum stage V female gametocytes
# assay_comment: P. falciparum female gametocyte activation assay (Pf FGAA), 24 h or 48 h preincubation, Pfs25 expression readout
# Type: cell-based, Plasmodium falciparum NF54
# test_settings: P. falciparum female gametocytes; mean; read-out: Gametocytes mean Pf FGAA IC50
# Description: P. falciparum NF54 (originally isolated from an imported malaria case in the Netherlands in the 1980s; BEI Resources, cat. no. MRA-1000) asexual-stage culture was performed as described by Trager and Jensen[37]. […] Sexual-stage development was monitored microscopically by Giemsa-stained thin blood smears at day 7 (mainly asexual stages and stages I to III gametocytes) and day 14 (stages IV and V gametocytes). […]
measurement_kind: pIC50
One number for each entry, as −log10 of the molar value.

Below are worked cases with known answers.
Cc1ccc(Nc2nc(-c3ccccn3)cs2)nc1 [TCMDC-125854]; 7.56
COc1cc(-c2cc(-c3ccc(S(C)(=O)=O)cc3)cnc2N)ccc1O [TCMDC-133343]; 6.41
Br.CCCCc1ccc(CCNCCCCCCNCCc2ccc(O)c(O)c2)cc1 [TCMDC-131281]; 5.67
Cl.c1ccc2c(NCCCCCCCCCNc3c4ccccc4nc4ccccc34)c3ccccc3nc2c1 [TCMDC-124286]; 5.74

--- query ---
[Q] Identify the measured pIC50 of Clc1ccc(-c2csc3ncnc(Cl)c23)cc1 [TCMDC-123811] for P. falciparum stage V female gametocytes.
[A] 5.80
